Taken from PubChem BioAssay (NCI).

Experiment: NCI Yeast Anticancer Drug Screen. Data for the rad50 strain (AID 155);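 note: 0% = growth of vehicle-only cultures of the same strain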
Conditions: S. cerevisiae rad50 strain growth inhibition; at 5.0 µM (retest, dose inferred, filed as 0.5)
Compounds without any hit were thinned out: in the full panel of roughly 79,000, 15% have a hit. The source made the active and inactive calls. Cut-off read from the data, not from the text of the source: active = growth inhibition above about 70%; inactive = the rest.
Just give me one of these, please: active, inactive

{"COMPOUND": "C/C(=N\\NC(=O)c1ccc([N+](=O)[O-])cc1)c1ccccc1", "CATEGORY_LABEL": "inactive"}
{"COMPOUND": "O=Nc1c(-c2c[nH]c3ccccc23)[nH]c2ccccc12", "CATEGORY_LABEL": "inactive"}
{"COMPOUND": "CCCCCCCCNc1ccc(Cl)cc1", "CATEGORY_LABEL": "inactive"}
{"COMPOUND": "O=[n+]1c2c(n([O-])c3ccc4ccccc4c31)-c1cccc3cccc-2c13", "CATEGORY_LABEL": "inactive"}

How was COC(=O)N/N=C(\c1ccc(O)cc1)C(C)C1(O)C(=O)Nc2ccccc21 (centres undefined) classified in this test?
inactive

How was N#C/C=C/C=C/C#N classified in this test?
inactive

How was c1cc[c]([Sn]([O]c2cccc3cccnc23)([c]2ccccc2)[c]2ccccc2)cc1 classified in this test?
active

How was CCC[CH2][Sn]([CH2]CCC)([O]C(=O)c1cc(OC)c(OC)cc1OC)[O][Sn]([CH2]CCC)([CH2]CCC)[O]C(=O)c1cc(OC)c(OC)cc1OC classified in this test?
active

How was COc1ccc(C2COc3cc(O)c(O)cc3C2)cc1OC (centres undefined) classified in this test?
inactive

How was O=C(C[n+]1ccc2ccccc2c1)c1ccc2ccc3ccccc3c2c1 classified in this test?
inactive

How was CCCCCCCCCCCCCCCCC#N classified in this test?
inactive

How was CC1OC(OC2C(Oc3c(-c4ccc(O)c(O)c4O)oc4cc(O)ccc4c3=O)OC(CO)C(O)C2O)C(O)C(O)C1O (centres undefined) classified in this test?
inactive

How was Cc1ccc(C(CN)(CCBr)c2ccc(C)cc2)cc1 classified in this test?
inactive

How was CN(C)CC/C(=N\Nc1ccc([N+](=O)[O-])cc1)c1ccccc1 classified in this test?
inactive

###

Test: NCI Yeast Anticancer Drug Screen. Data for the cln2 rad14 strain (AID 165);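 note: 0% = growth equal to vehicle treated cultures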
Conditions: S. cerevisiae cln2 rad14 strain, at 50.0 µM, active compounds read high
Protocol: Growth inhibition of yeast strains with defined genetic alterations is measured as a screen for potential anti-cancer activity. Selected strains with alterations in DNA damage repair or cell cycle control were exposed to compounds and growth inhibition was measured relative to vehicle treated controls. The strain used in this assay is cln2 rad14
Compounds without any hit were thinned out: in the full panel of roughly 79,000, 15% have a hit.
REPORTED_METRIC: growth inhibition (%)
Just the number in %, nothing appended.

Solved cases (3 shown):
{"MOLECULE": "CCOC(=O)c1c(Cl)nc2ccccc2c1N=[N+]=[N-]", "growth inhibition (%)": 58}
{"MOLECULE": "O=C(NCCCCC(NC(=O)OCc1ccccc1)C(=O)Nc1ccc(Nc2ccc(NC(=O)C(CCCCNC(=O)OCc3ccccc3)NC(=O)OCc3ccccc3)cc2)cc1)OCc1ccccc1 (centres undefined)", "growth inhibition (%)": 87.7}
{"MOLECULE": "O=[N+]([O-])C1=Cc2cc(Cl)ccc2OC1c1cccc2ccccc12 (centres undefined)", "growth inhibition (%)": 87.1}

The molecule identified as COc1ccccc1C(=O)[O][Sn]([c]1ccccc1)([c]1ccccc1)[c]1ccccc1 registered its growth inhibition at 89.3

###

Experiment: NCI Yeast Anticancer Drug Screen. Data for the rad50 strain (AID 155);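 note: 0% = growth of vehicle-only cultures of the same strain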
Details: S. cerevisiae rad50 strain growth inhibition; at 50.0 µM
Compounds without any hit were thinned out: in the full panel of roughly 79,000, 15% have a hit. Activity calls are given as the source filed them. Cut-off read from the data, not from the text of the source: active = growth inhibition above about 70%; inactive = the rest.
Just give me one of these, please: 1.0 (active), 0.0 (inactive)

Some solved cases for reference:
{"MOLECULE": "COC(=O)c1c(C)cccc1C1CN=NC12Cc1ccc(C)c(C)c1C2=O (centres undefined)", "CATEGORY_LABEL": 0.0}
{"MOLECULE": "COc1cc[c]([Sn]([O][Sn]([Cl])([c]2ccc(OC)cc2)[c]2ccc(OC)cc2)[c]2ccc(OC)cc2)cc1", "CATEGORY_LABEL": 0.0}
{"MOLECULE": "CC(C)c1cc(O)c(C(C)(C)C)cc1Cl", "CATEGORY_LABEL": 1.0}

Could you now look at the following molecule, please?
How was CCCCCCCCCCCCOC(=O)C[n+]1cccc(C(N)=O)c1 classified in this test?
1.0

###

Experiment: NCI Yeast Anticancer Drug Screen. Data for the bub3 strain (AID 167)
Conditions: S. cerevisiae bub3 mutant strain, at 5.0 µM (retest, dose inferred, filed as 0.5), active compounds read high
About 79,000 compounds went through this panel and 15% of them were active in at least one assay; those are over-represented in the sample as a whole.
Think of 20% as a floor: if growth inhibition stands on it or above, it is Fulfilled; beneath it, Not fulfilled.

Some solved cases for reference:
{"COMPOUND": "CCCCCCCCCCCCOC(=O)C[n+]1cccc(C(N)=O)c1", "CATEGORY_LABEL": "Not fulfilled"}
{"COMPOUND": "O=C(Nc1ccc(C2=NCCN2)cc1)c1cc(C(=O)Nc2ccc(C3=NCCN3)cc2)cc(C(=O)Nc2ccc(C3=NCCN3)cc2)c1", "CATEGORY_LABEL": "Fulfilled"}
{"COMPOUND": "COc1c2c(cc3c1c(=O)c1ccccc1n3C)OCO2", "CATEGORY_LABEL": "Not fulfilled"}
{"COMPOUND": "C=C1C(=O)OC2C1CCC(=C)C1CC(O)C(=C)C12 (stereo unspecified)", "CATEGORY_LABEL": "Not fulfilled"}
{"COMPOUND": "Clc1ccc(C2=C(c3ccccc3)C(c3ccc(Cl)cc3)N3C(=N[C@H]4CCCC[C@@H]43)N2)cc1 (stereo partly specified)", "CATEGORY_LABEL": "Not fulfilled"}

Could you now look at the following compound, please?
Given N#CC1C2CCC3(CC2CCN1C(=O)c1ccccc1)OCCO3 (stereo unspecified) , state whether its growth inhibition is at least 20%.
Not fulfilled

###

Test: NCI Yeast Anticancer Drug Screen. Data for the sgs1 mgt1 strain (AID 161);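 note: 0% = growth of cultures given vehicle only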
Conditions: S. cerevisiae sgs1 mgt1 strain, at 50.0 µM (retest, dose inferred, filed as 5.0), active compounds read high
The panel holds about 79,000 compounds, 15% with a hit somewhere; the sample as a whole holds those more often.
Parameter: growth inhibition. Scope: all listed entries.
Just the number in %, nothing appended.

The molecule identified as S=C(Nc1cc(Cl)cc(Cl)c1)SCc1ccccc1 registered its growth inhibition at 74

The molecule identified as Cn1c2nc(-[n+]3ccc(-c4ccccc4)cc3)nc-2c([O-])n(C)c1=O registered its growth inhibition at -4

The molecule identified as CC(C)c1cc(O)c(C(C)(C)C)cc1Cl registered its growth inhibition at 24

The molecule identified as O=C(c1ccc(Cl)cc1)C1N=NCC1c1ccccc1 (centres undefined) registered its growth inhibition at 50

The molecule identified as O=c1[nH]cnc2nc(I)[nH]c12 registered its growth inhibition at 5

###

Experiment: NCI Yeast Anticancer Drug Screen. Data for the mec2-1 strain (AID 157)
Details: S. cerevisiae mec2-1 strain, at 5.0 µM (retest, dose inferred, filed as 0.5), active compounds read high
About 79,000 compounds went through this panel and 15% of them were active in at least one assay; those are over-represented in the sample as a whole.
Parameter: growth inhibition. Scope: all listed entries.
Just the number in %, nothing appended.

Solved cases (3 shown):
{"COMPOUND": "COc1cc(CNC(=O)CCCCCCCCCCSC#N)ccc1O", "READOUT_UNITS": "%", "growth inhibition": 5}
{"COMPOUND": "CCCCCCCCCCCCCCCCCC[N+]1(C)CCC[N+](C)(CCCCCCCCCCCCCCCCCC)CC1 (configuration not stated)", "READOUT_UNITS": "%", "growth inhibition": -3}
{"COMPOUND": "CC(C)(C)OC(=O)Nc1cccc(Cl)c1", "READOUT_UNITS": "%", "growth inhibition": -4}

The compound identified as COC(=O)c1nc(=S)[nH]c(C(=O)OC)c1C(=O)c1c(C)[nH]c2ccccc12 registered its growth inhibition at -3

The compound identified as O=C(Nc1ccccc1)OCCN=c1c2ccccc2ccc2ccccc12 registered its growth inhibition at -1

The compound identified as O=[N+]([O-])C(=C1Nc2ccccc2N1)C(Cl)=C(Cl)Cl registered its growth inhibition at 10

The compound identified as Cc1nc2c(O)c3c(c(O)c2nc1C)C1C=CC3CC1 registered its growth inhibition at 16

###

Experiment: NCI Yeast Anticancer Drug Screen. Data for the sgs1 mgt1 strain (AID 161);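 note: 0% = growth of cultures given vehicle only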
Conditions: S. cerevisiae sgs1 mgt1 strain, at 5.0 µM (retest, dose inferred, filed as 0.5), active compounds read high
This is part of a sample that, as a whole, favours compounds with a hit. Of some 79,000 tested, about 15% had one in any assay.
REPORTED_METRIC: growth inhibition (%)
Just the number in %, nothing appended.

Solved cases (6 shown):
{"COMPOUND": "[N-]=[N+]=NC1=CC(=O)c2cccc3cccc1c23", "growth inhibition, %": 65}
{"COMPOUND": "CCCCCC(C)(O)C#CC(C)(O)CCCCC (configuration not stated)", "growth inhibition, %": 1}
{"COMPOUND": "CCc1cccc(C)c1NC(=O)/C(Cl)=C(\\Cl)C(=O)O", "growth inhibition, %": 67}
{"COMPOUND": "Oc1ccc(CC2CCC(O)CC2)cc1 (configuration not stated)", "growth inhibition, %": -66}
{"COMPOUND": "CC(C)(C)c1ccc2c(c1)C(O)(c1ccccc1)C1OC1(C(C)(C)C)C2=O (configuration not stated)", "growth inhibition, %": 16}
{"COMPOUND": "CC[C@H](CC[C@@H](C)C1CC[C@H]2[C@@H]3CCC4=CC(=O)CC[C@]4(C)[C@H]3CC[C@]12C)C(C)C (some centres not stated)", "growth inhibition, %": -8}

Consider now this further compound.
The compound identified as Nc1cc(=O)[nH]c(=S)[nH]1.[Pd] registered its growth inhibition at 5
